B1: LINE1-full (parent)
chain: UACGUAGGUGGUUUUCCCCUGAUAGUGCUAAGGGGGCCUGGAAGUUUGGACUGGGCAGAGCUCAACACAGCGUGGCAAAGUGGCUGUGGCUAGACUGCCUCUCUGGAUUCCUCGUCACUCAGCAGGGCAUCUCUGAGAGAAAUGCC

Variants of: B1
Test: self-cleavage, relative activity (ratio to wild type); higher = more cleavage; in vitro, sequencing; the parent is a self-cleaving ribozyme
readoutType: self-cleavage

{"variantName": "U14C U102A", "obsValue": 1.67}
{"variantName": "U108C U115A", "obsValue": 1.86}
{"variantName": "U62C G137A", "obsValue": 0.17}
{"variantName": "A77G A107G", "obsValue": 2.08}
{"variantName": "U13C C113U", "obsValue": 1}
{"variantName": "A30U U119C", "obsValue": 0.5}
{"variantName": "A31G A64G", "obsValue": 0.31}
{"variantName": "A43G A92G", "obsValue": 0.22}
{"variantName": "U26A G127U", "obsValue": 1.16}
{"variantName": "A78U A107G", "obsValue": 2.47}
{"variantName": "C19U U104A", "obsValue": 1.07}
{"variantName": "U115A A121G", "obsValue": 1.47}
{"variantName": "U109A A138G", "obsValue": 0.7}
{"variantName": "U5C A69U", "obsValue": 0.14}
{"variantName": "G4A A43G", "obsValue": 0.67}
{"variantName": "A30G C71U", "obsValue": 0.85}
{"variantName": "U9G U13C", "obsValue": 0.65}
{"variantName": "A42U U115C", "obsValue": 1.15}
{"variantName": "U12C U119A", "obsValue": 1.78}
{"variantName": "U91C A138G", "obsValue": 1.98}
{"variantName": "C76A A142G", "obsValue": 1.87}
{"variantName": "G97A A141G", "obsValue": 0.12}
{"variantName": "G7A A22G", "obsValue": 1.36}

Cited source: the RNAGym collection of RNA variant scans (doi:10.7554/elife.90254)
